- tgt: T1, cynomolgus monkey CD19 (cynomolgus monkey, UniProt A0A2K5W8L9 20-557)
- T1 construct: whole, on cells; also called cyno CD19; cPro1
- T1 sequence: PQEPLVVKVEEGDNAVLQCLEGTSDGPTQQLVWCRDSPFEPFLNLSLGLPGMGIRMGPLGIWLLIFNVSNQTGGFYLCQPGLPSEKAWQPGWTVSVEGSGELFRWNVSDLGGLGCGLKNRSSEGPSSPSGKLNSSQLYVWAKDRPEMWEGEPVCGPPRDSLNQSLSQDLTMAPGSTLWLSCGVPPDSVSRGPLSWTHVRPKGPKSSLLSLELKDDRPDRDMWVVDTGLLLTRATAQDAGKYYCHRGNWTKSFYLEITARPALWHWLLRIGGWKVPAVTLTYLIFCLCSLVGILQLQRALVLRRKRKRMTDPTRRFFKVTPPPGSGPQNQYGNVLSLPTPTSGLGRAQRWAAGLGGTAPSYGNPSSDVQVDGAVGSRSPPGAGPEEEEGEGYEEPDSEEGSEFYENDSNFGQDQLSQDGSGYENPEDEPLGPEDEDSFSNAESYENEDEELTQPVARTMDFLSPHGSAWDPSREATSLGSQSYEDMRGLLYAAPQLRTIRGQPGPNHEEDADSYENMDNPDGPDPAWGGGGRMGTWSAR
- test summary: flow cytometry on cynomolgus CD19 transfected CHO-K1 cells
parameter measured: pEC50
pEC50 (log units): -log10 of the concentration in mol/L.

(Q) Recorded pEC50 of WBP7011_4.194.10 (antibody, V domains shown, also called W7011-4.194.10) VH: EVQLQQSGPELVKPGASVKMSCKASGYTFTSYVMHWVKQKPGQGLEWIGYINPYNDGTKYNEKFKGKATLTSDKSSSTAYMELSSLTSEDSAVYYCARGPYYYGSSPFDYWGQGTTLTVSS VL: DAVMTQTPLSLPVSLGDQASISCRSSQTLENSNGNTYLNWYLQKPGQSPQLLIYRVSNRFSGVLDRFSGSGSGTDFTLKISRVETEDLGVYFCLQVTHVPYTFGGGTKLEIK , please.
(A) 9.00
